Target or system Glutamate carboxypeptidase 2 (Homo sapiens, UniProt Q04609); metric IC50; compiled from varied reports.
Numbers only, in nM.

As a guide, the following entries are already answered.
[[record]]
compound = "O=C(O)CC[C@H](NP(=O)(O)O[C@@H]1C[C@@H](C(=O)O)N(C(=O)CC[C@H](NC(=O)c2ccc(F)cc2)C(=O)O)C1)C(=O)O"
measurement_target = "Glutamate carboxypeptidase 2 (Homo sapiens, UniProt Q04609)"
result_number = 2.6

[[record]]
compound = "O=C(O)CCC(CCC(=O)NO)C(=O)O (configuration not stated)"
measurement_target = "Glutamate carboxypeptidase 2 (Homo sapiens, UniProt Q04609)"
result_number = 1200

[[record]]
compound = "O=C(O)CC[C@H](NP(=O)(O)O[C@H]1C[C@H](C(=O)O)N(C(=O)CC[C@H](NC(=O)CCCCCNC(=O)c2ccc(F)cc2)C(=O)O)C1)C(=O)O"
measurement_target = "Glutamate carboxypeptidase 2 (Homo sapiens, UniProt Q04609)"
result_number = 11

[[record]]
compound = "O=C(O)CC[C@H](NP(=O)(O)O[C@H]1C[C@H](C(=O)O)N(C(=O)CC[C@H](NC(=O)c2ccc(F)cc2)C(=O)O)C1)C(=O)O"
measurement_target = "Glutamate carboxypeptidase 2 (Homo sapiens, UniProt Q04609)"
result_number = 3

[[record]]
compound = "[N-]=[N+]=NCCCNC(=O)[C@H](Cc1ccc(O)cc1)NC(=O)[C@H](Cc1ccccc1)NC(=O)CCC(=O)NCCCCCC(=O)N(CCCC[C@H](NC(=O)N[C@@H](CCC(=O)O)C(=O)O)C(=O)O)Cc1cccc(Cl)c1"
measurement_target = "Glutamate carboxypeptidase 2 (Homo sapiens, UniProt Q04609)"
result_number = 9


Could I get IC50 for every one of these entries?
1. N[C@@H](CCC(=O)N1C[C@H](OP(=O)(O)N[C@@H](CCC(=O)O)C(=O)O)C[C@H]1C(=O)O)C(=O)O
2. O=C(O)CCC(CC(=O)O)C(=O)O (configuration not stated)
3. O=C(O)CCC(=O)NO
4. CSCCCC(CCC(=O)O)C(=O)O (configuration not stated)
5. CC(=O)NC(=N)c1ccc2[nH]c(-c3cc(-c4ccc(CNC(=O)[C@H](CCCCNC(=O)CCCCC[N+]5=C(/C=C/C6=CC(=C/C=C7/N(C)c8ccc(S(=O)(=O)O)cc8C7(C)C)/CCC6)C(C)(C)c6cc(S(=O)(=O)O)ccc65)NC(=O)CCCCCCC(=O)NCCCCC(NC(=O)N[C@@H](CCC(=O)O)C(=O)O)C(=O)O)cc4)ccc3O)cc2c1 (some centres not stated)
6. O=C(O)CC[C@H](NP(=O)(O)O[C@@H]1C[C@@H](C(=O)O)N(C(=O)CC[C@H](NC(=O)CCCCCNC(=O)c2ccc(F)cc2)C(=O)O)C1)C(=O)O
7. O=C(O)CC[C@H](NP(=O)(O)OCCC[C@H](NC(=O)CC[C@H](NC(=O)c1ccc(F)cc1)C(=O)O)C(=O)O)C(=O)O
8. O=C(O)CCC(CCCSSCCCC(CCC(=O)O)C(=O)O)C(=O)O (configuration not stated)

Result ::
1. 60
2. 20000
3. 43000
4. 6500
5. 25
6. 1.3
7. 1.3
8. 3100

---

Target or system Glutamate carboxypeptidase 2 (Homo sapiens, UniProt Q04609); metric pIC50; compiled from varied reports.
One number for each entry, as −log10 of the molar value.

As a guide, the following entries are already answered.
[[record]]
compound = "O=C(O)CC[C@H](NC(=O)N[C@@H](CCC(=O)O)C(=O)O)C(=O)O"
measurement_target = "Glutamate carboxypeptidase 2 (Homo sapiens, UniProt Q04609)"
result_number = 7.33

[[record]]
compound = "O=C(O)CCC(CCP(=O)(O)O)C(=O)O (centres undefined)"
measurement_target = "Glutamate carboxypeptidase 2 (Homo sapiens, UniProt Q04609)"
result_number = 5.92

[[record]]
compound = "N[C@@H](CCC(=O)N[C@@H](CCCOP(=O)(O)N[C@@H](CCC(=O)O)C(=O)O)C(=O)O)C(=O)O"
measurement_target = "Glutamate carboxypeptidase 2 (Homo sapiens, UniProt Q04609)"
result_number = 7.57

[[record]]
compound = "NCCCCCC(=O)N[C@@H](CCC(=O)N1C[C@H](OP(=O)(O)N[C@@H](CCC(=O)O)C(=O)O)C[C@H]1C(=O)O)C(=O)O"
measurement_target = "Glutamate carboxypeptidase 2 (Homo sapiens, UniProt Q04609)"
result_number = 7.10

[[record]]
compound = "N[C@@H](COP(=O)(O)O)C(=O)O"
measurement_target = "Glutamate carboxypeptidase 2 (Homo sapiens, UniProt Q04609)"
result_number = 3.28


Query :: Which pIC50 is reported for this compound? NCCCCCC(=O)N[C@@H](CCC(=O)N[C@@H](CCCOP(=O)(O)N[C@@H](CCC(=O)O)C(=O)O)C(=O)O)C(=O)O
Result :: 7.72
